experimental-target: NLRP3 inflammasome (Homo sapiens)
Construct: freshly isolated from human peripheral blood from healthy donors; StemCells Technologies; host or cells: primary human PBMCs
Sequence (Q96P20 whole entry): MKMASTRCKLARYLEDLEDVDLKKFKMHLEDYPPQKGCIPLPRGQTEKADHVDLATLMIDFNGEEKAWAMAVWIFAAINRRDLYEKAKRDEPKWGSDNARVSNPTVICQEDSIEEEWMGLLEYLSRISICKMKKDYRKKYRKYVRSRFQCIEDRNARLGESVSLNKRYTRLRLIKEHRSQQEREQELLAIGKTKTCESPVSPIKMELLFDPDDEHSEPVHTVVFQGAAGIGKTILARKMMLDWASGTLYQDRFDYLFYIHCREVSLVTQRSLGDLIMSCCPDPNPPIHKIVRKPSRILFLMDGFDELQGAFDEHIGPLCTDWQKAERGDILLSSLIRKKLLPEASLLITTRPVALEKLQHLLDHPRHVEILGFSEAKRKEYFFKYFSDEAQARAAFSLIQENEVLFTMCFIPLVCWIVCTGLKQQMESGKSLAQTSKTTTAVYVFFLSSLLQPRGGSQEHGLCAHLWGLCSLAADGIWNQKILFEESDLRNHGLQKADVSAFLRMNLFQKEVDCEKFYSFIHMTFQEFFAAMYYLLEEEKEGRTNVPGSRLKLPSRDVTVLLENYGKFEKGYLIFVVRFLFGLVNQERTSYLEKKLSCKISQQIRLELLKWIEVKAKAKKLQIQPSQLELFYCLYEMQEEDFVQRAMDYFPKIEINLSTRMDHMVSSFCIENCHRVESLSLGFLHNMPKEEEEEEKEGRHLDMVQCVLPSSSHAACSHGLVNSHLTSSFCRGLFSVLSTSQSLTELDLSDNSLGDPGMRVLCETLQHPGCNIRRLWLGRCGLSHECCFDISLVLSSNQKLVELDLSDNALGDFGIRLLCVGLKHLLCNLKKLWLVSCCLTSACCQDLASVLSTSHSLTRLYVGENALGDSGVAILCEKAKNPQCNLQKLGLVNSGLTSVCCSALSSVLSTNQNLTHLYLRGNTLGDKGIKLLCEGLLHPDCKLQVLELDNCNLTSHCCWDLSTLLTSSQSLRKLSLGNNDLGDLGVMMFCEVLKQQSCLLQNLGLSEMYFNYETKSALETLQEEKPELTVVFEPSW
assay-remarks: NLRP3 inflammasome activation assay in LPS-primed, nigericin-stimulated PBMCs, IL-1β release
Assay type: cell-based
condition-info: LPS 100 ng/mL priming, 10 μM nigericin; read-out: IL-1B pIC50 (converted)
Known IC50 of a selection of molecules

molecule: CC(C)(C)c1cc(NC(=O)NS(=O)(=O)c2cnn3c2OCCC3)n(C(C)(C)C)n1 [drawing 403]
experimental-target: NLRP3 inflammasome (Homo sapiens)
IC50: > 10 µM

molecule: O=C(Nc1nc(-c2ccccc2)cc(C(F)(F)F)n1)NS(=O)(=O)c1cnn2c1OCCC2 [drawing 382]
experimental-target: NLRP3 inflammasome (Homo sapiens)
IC50: > 10 µM

molecule: CCOc1cc(C(C)C)c(NC(=O)NS(=O)(=O)c2cnn3c2OCCC3)c(C(C)C)n1 [drawing 417]
experimental-target: NLRP3 inflammasome (Homo sapiens)
IC50: 1 to 10 µM

molecule: CC(C)c1cncc(C(C)C)c1NC(=O)NS(=O)(=O)c1cnn2c1OCCC2 [drawing 394]
experimental-target: NLRP3 inflammasome (Homo sapiens)
IC50: 1 to 10 µM

molecule: CC(C)n1nc2c(c1NC(=O)NS(=O)(=O)c1cnn3c1OCCC3)CCC2 [drawing 411]
experimental-target: NLRP3 inflammasome (Homo sapiens)
IC50: 1 to 10 µM

molecule: Cc1cc(NC(=O)NS(=O)(=O)c2cnn3c2OCCC3)n(C(C)C)n1 [drawing 410]
experimental-target: NLRP3 inflammasome (Homo sapiens)
IC50: > 10 µM

molecule: COc1cc(C(C)C)c(NC(=O)NS(=O)(=O)c2cnn3c2OCC(C)(C)C3)c(C(C)C)n1 [drawing 414]
experimental-target: NLRP3 inflammasome (Homo sapiens)
IC50: 1 to 10 µM

molecule: Cc1cc(C2CC2)nc(NC(=O)NS(=O)(=O)c2cnn3c2OCCC3)n1 [drawing 386]
experimental-target: NLRP3 inflammasome (Homo sapiens)
IC50: > 10 µM

molecule: O=C(NC1(c2ccccc2)CCCCCC1)NS(=O)(=O)c1cnn2c1OCCC2 [drawing 377]
experimental-target: NLRP3 inflammasome (Homo sapiens)
IC50: > 10 µM

molecule: Cc1nc(NC(=O)NS(=O)(=O)c2cnn3c2OCCC3)nc2c1CCCC2 [drawing 389]
experimental-target: NLRP3 inflammasome (Homo sapiens)
IC50: > 10 µM

molecule: C=C(C)c1cncc(C(=C)C)c1NC(=O)NS(=O)(=O)c1cnn2c1OCCC2 [drawing 392]
experimental-target: NLRP3 inflammasome (Homo sapiens)
IC50: > 10 µM

molecule: O=C(Nc1nc(Cl)cc(Cl)n1)NS(=O)(=O)c1cnn2c1OCCC2 [drawing 369]
experimental-target: NLRP3 inflammasome (Homo sapiens)
IC50: > 10 µM

molecule: CC(C)c1cc(Cl)nc(NC(=O)NS(=O)(=O)c2cnn3c2OCCC3)n1 [drawing 381]
experimental-target: NLRP3 inflammasome (Homo sapiens)
IC50: > 10 µM

molecule: CC(C)c1cc(Cl)nc(C(C)C)c1NC(=O)NS(=O)(=O)c1cnn2c1OCCC2 [drawing 399]
experimental-target: NLRP3 inflammasome (Homo sapiens)
IC50: 0.1 to 1 µM

molecule: CC(C)c1cc(N(C)C)nc(C(C)C)c1NC(=O)NS(=O)(=O)c1cnn2c1OCCC2 [drawing 418]
experimental-target: NLRP3 inflammasome (Homo sapiens)
IC50: 1 to 10 µM

molecule: COc1cc(C(C)C)c(NC(=O)NS(=O)(=O)c2cnn3c2OC[C@@H](OC)C3)c(C(C)C)n1 [drawing 404]
experimental-target: NLRP3 inflammasome (Homo sapiens)
IC50: 0.1 to 1 µM

molecule: CC(C)c1nn(C)c(C(C)C)c1NC(=O)NS(=O)(=O)c1cnn2c1OCCC2 [drawing 391]
experimental-target: NLRP3 inflammasome (Homo sapiens)
IC50: 1 to 10 µM

molecule: COc1cc(C(C)C)c(NC(=O)NS(=O)(=O)c2cnn3c2OC[C@@H](N2CC(OC)C2)C3)c(C(C)C)n1 [drawing 409]
experimental-target: NLRP3 inflammasome (Homo sapiens)
IC50: < 0.1 µM

molecule: CC(C)c1ccnc(C(C)C)c1NC(=O)NS(=O)(=O)c1cnn2c1OCCC2 [drawing 398]
experimental-target: NLRP3 inflammasome (Homo sapiens)
IC50: 1 to 10 µM

molecule: CC1(C)COc2c(S(=O)(=O)NC(=O)NC3CCCCc4ccccc43)cnn2C1 (stereo not drawn) [drawing 413]
experimental-target: NLRP3 inflammasome (Homo sapiens)
IC50: > 10 µM

molecule: O=C(Nc1c(-c2ccccc2)nc2ccccn12)NS(=O)(=O)c1cnn2c1OCCC2 [drawing 375]
experimental-target: NLRP3 inflammasome (Homo sapiens)
IC50: > 10 µM

molecule: CC(C)c1cc(C#N)nc(C(C)C)c1NC(=O)NS(=O)(=O)c1cnn2c1OCCC2 [drawing 416]
experimental-target: NLRP3 inflammasome (Homo sapiens)
IC50: 1 to 10 µM

molecule: O=C(Nc1nc(-c2ccccc2)cc2c1CCC2)NS(=O)(=O)c1cnn2c1OCCC2 [drawing 388]
experimental-target: NLRP3 inflammasome (Homo sapiens)
IC50: > 10 µM

molecule: CNc1cc(C(C)C)c(NC(=O)NS(=O)(=O)c2cnn3c2OCCC3)c(C(C)C)n1 [drawing 420]
experimental-target: NLRP3 inflammasome (Homo sapiens)
IC50: 1 to 10 µM

molecule: CC(C)c1cc(C2CC2)nc(C(C)C)c1NC(=O)NS(=O)(=O)c1cnn2c1OCCC2 [drawing 412]
experimental-target: NLRP3 inflammasome (Homo sapiens)
IC50: 0.1 to 1 µM

molecule: Cc1cc(C(C)C)c(NC(=O)NS(=O)(=O)c2cnn3c2OCCC3)c(C(C)C)n1 [drawing 415]
experimental-target: NLRP3 inflammasome (Homo sapiens)
IC50: 1 to 10 µM

molecule: O=C(NC(c1ccccc1)c1ccccc1)NS(=O)(=O)c1cnn2c1OCCC2 [drawing 380]
experimental-target: NLRP3 inflammasome (Homo sapiens)
IC50: > 10 µM

molecule: O=C(NN1CCOc2ccccc21)NS(=O)(=O)c1cnn2c1OCCC2
experimental-target: NLRP3 inflammasome (Homo sapiens)
IC50: > 10 µM

molecule: CC(C)c1nn(CC2CC2)c(C(C)C)c1NC(=O)NS(=O)(=O)c1cnn2c1OCCC2 [drawing 402]
experimental-target: NLRP3 inflammasome (Homo sapiens)
IC50: 0.1 to 1 µM

molecule: O=C(Nc1c2c(n3c1CCC3)CCCC2=O)NS(=O)(=O)c1cnn2c1OCCC2 [drawing 395]
experimental-target: NLRP3 inflammasome (Homo sapiens)
IC50: > 10 µM

molecule: CCn1nc(C(C)C)c(NC(=O)NS(=O)(=O)c2cnn3c2OC[C@@H](OC)C3)c1C(C)C [drawing 406]
experimental-target: NLRP3 inflammasome (Homo sapiens)
IC50: 1 to 10 µM

molecule: CO[C@@H]1COc2c(S(=O)(=O)NC(=O)Nc3c(C(C)C)nn(C)c3C(C)C)cnn2C1 [drawing 405]
experimental-target: NLRP3 inflammasome (Homo sapiens)
IC50: 1 to 10 µM

molecule: O=C(NC1c2ccccc2CC12CCOCC2)NS(=O)(=O)c1cnn2c1OCCC2 (stereo not drawn) [drawing 367]
experimental-target: NLRP3 inflammasome (Homo sapiens)
IC50: > 10 µM

// data source = patent US11560391B2
